test-name: Toxicology studies in vivo
Design: species or system female nude mice
conditions: 25 mg kg^-1, serum, mean ± SD; control 1.5 ± 0.2
value-kind: Albumin (g/dL)
Number in g/dL, nothing else.

Entry C=C(CC[C@@H](C(=O)O)[C@H]1[C@H](O)C[C@@]2(C)C3=C(CC[C@]12C)[C@@]1(C)CC[C@H](OC(C)=O)C(C)(C)[C@@H]1CC3)C(C)C has what Albumin?
1.6

---

test-name: Toxicology studies in vivo
Set-up: species or system female nude mice
conditions: 50 mg kg^-1, serum, mean ± SD; control 1.5 ± 0.2
value-kind: Albumin

Returns the measured Albumin for the input compound. Input: C=C(CC[C@@H](C(=O)O)[C@H]1[C@H](O)C[C@@]2(C)C3=C(CC[C@]12C)[C@@]1(C)CC[C@H](OC(C)=O)C(C)(C)[C@@H]1CC3)C(C)C
1.6 g/dL

---

test-name: Toxicology studies in vivo
Design: species or system female nude mice
conditions: 25 mg kg^-1, serum, mean ± SD; control 4.1 ± 0.5
value-kind: T Protein (g/dL)
Reply numerically in g/dL, unit not repeated.

Fill blank: measured T Protein of the compound C=C(CC[C@@H](C(=O)O)[C@H]1[C@H](O)C[C@@]2(C)C3=C(CC[C@]12C)[C@@]1(C)CC[C@H](OC(C)=O)C(C)(C)[C@@H]1CC3)C(C)C [PA, Pachymic acid] is ____.
4.5
